tested on: A549 NSCLC; experiment: NCI tumour cell line growth inhibition, 48 h
Would you mind telling me the reported GI50 of each entry?

For the molecule "O=C1c2ccccc2-c2c1c1ccccc1c(=O)n2CCCNCCn1c2c(c3ccccc3c1=O)C(=O)c1ccccc1-2" , report GI50.
13.5 µM

Quickly give me recorded GI50 for "Clc1ccccc1-c1nnc2c(Cc3ccccc3)nc3ccccc3n12"
8.78 µM

Dear colleague, please send me the reported GI50 for CSc1nc2c(c(=O)n1C)CN(C1CCCCC1)C(=O)C(c1ccccc1)N2 (centres undefined) when you can.
38.4 µM

Could you please provide reported GI50 for "CCCCCCCCCC[C@H](O)[C@H](O)CC[C@@H](O)[C@H]1CC[C@@H]([C@H]2CC[C@H](CCCCCCC[C@@H](O)CC3=C[C@H](C)OC3=O)O2)O1" ? Thanks!
20.7 µM

Origin of measurements: PubChem BioAssay (NCI)
